tested on: SNB-75 CNS; test: NCI tumour cell line growth inhibition, 48 h
PROPERTY NAME: TGI

Cc1ccccc1NC(=O)C(=O)Cc1nc2ccccc2s1	> 100 µM

q: Value lookup for TGI; key = `COc1cc2cc(C(=O)O)[nH]c2cc1OCc1ccccc1`
a: > 100 µM

q: Fill blank: measured TGI of the compound COc1ccc(C(=O)C(C(=O)C(=O)Nc2nc3ccc(OC)cc3s2)c2ccc(OC)cc2)cc1 (stereo not given) is ____.
a: > 100 µM

q: Recorded TGI for CC1CC2C3CC(F)C4=CC(=O)C=CC4(C)C3(F)C(O)CC2(C)C1(O)C(=O)CO (stereo not given) , please?
a: > 100 µM

###

# Lookup of reported TGI keyed by entry
test system: RPMI-8226 leukemia; experiment: NCI tumour cell line growth inhibition, 48 h
Numbers only; they are read as µM.

CC1=COC2=C(C)C(=O)C(=O)c3c(C)ccc1c32	97.2

Moving on to the next molecule.
q: # TGI lookup, item `C[C@]12CC[C@H]3[C@@H](C[C@@H]4SC(Nc5cccc(F)c5)=N[C@@]45CC(=O)CC[C@]35C)[C@@H]1CCC2=O`
a: 3.9

###

tested on: CCRF-CEM leukemia; assay: NCI tumour cell line growth inhibition, 48 h
PROPERTY NAME: TGI

The cases that follow already have their TGI on record.
O=C(C#Cc1c[nH]c(=O)[nH]c1=O)c1ccccc1	7.8 µM
O=C1OC(c2ccc([N+](=O)[O-])cc2)=N/C1=C\c1ccc(O)cc1	> 100 µM
Cc1ccc(S(=O)(=O)n2ccn3c(=O)cc(C)nc23)cc1	> 10 µM
COc1cc2cc(C(=O)O)[nH]c2cc1OCc1ccccc1	> 100 µM
COc1cc2c(cc1OC)-c1c(cc(OC)c(OC)c1OC)C2=O	> 100 µM
c1ccc(C2CC(N3CCOCC3)=Nc3ccccc3N2)cc1 (stereo not given)	> 100 µM
NC(=O)c1c(OCc2c(F)cc(Br)cc2F)nsc1NC(=O)NCCCCN1CCCC1	8.17 µM
Cc1[nH]n(-c2ccccc2)c(=S)c1C(=O)c1ccccc1	57 µM

q: Returns the measured TGI for the input compound. Input: `CN/N=C(\C)CC(=O)Nc1cccc(Cl)c1C`
a: > 100 µM

q: What does the record list as TGI for O=c1cccc(C#CCCCCOC2CCCO2)o1 (stereo not given) ?
a: > 79.9 µM

q: Entry under review: `Cc1cccc(C)c1NC(=S)/N=C/C1=C(O)c2ccccc2C1=O` . Reported TGI?
a: > 100 µM

q: What measured TGI goes with `CC1=COC2=C(C)C(=O)C(=O)c3c(C)ccc1c32` ?
a: > 76.1 µM

q: What TGI value was documented for this compound, `O=C(O)[C@@H]1C[C@@H](O)CN1` ?
a: > 100 µM

q: Bench note: what TGI did COc1ccc(OC)c(C2CCc3cnc4nc(N)nc(N)c4c3C2)c1 (stereo not given) show?
a: > 100 µM

q: Would you mind telling me what TGI value was observed for CN(C)CCCC1(c2ccc(F)cc2)OCc2cc(-c3ccc4cc[nH]c4c3)ccc21 (stereo not given) ?
a: 7.12 µM

q: Could you tell me which TGI is on file for `COC(=O)C1=NN2c3ccccc3CN([C@@H](C)c3ccccc3)C(=O)[C@@H]2C1` ?
a: > 100 µM

q: I am curious: what TGI value has been reported for COc1cc(C2C(C(=O)O)=C(C)Oc3cc4c(cc32)OCO4)cc(OC)c1OC (stereo not given) ?
a: > 100 µM

q: Would you kindly share the measured TGI for `NC(N)=NC(N)=NCCc1ccccc1` ?
a: > 100 µM

q: May I ask what TGI has been recorded for `O=[N+]([O-])c1cc(Cl)ccc1S(=O)(=O)c1ccccc1` ?
a: > 100 µM

q: Which value of TGI has been reported for `C/C=C/C=C/[C@H]1Cc2cc(O)cc(O)c2O1` in the records?
a: > 100 µM

q: Entry under review: `CS(=O)(=O)C(=Cc1ccccc1Cl)S(C)(=O)=O` . Reported TGI?
a: > 100 µM

Values from PubChem BioAssay (NCI)
